# studySystem: Amyloid-beta precursor protein (Homo sapiens) (UniProt P05067)
# Sequence (P05067 whole entry): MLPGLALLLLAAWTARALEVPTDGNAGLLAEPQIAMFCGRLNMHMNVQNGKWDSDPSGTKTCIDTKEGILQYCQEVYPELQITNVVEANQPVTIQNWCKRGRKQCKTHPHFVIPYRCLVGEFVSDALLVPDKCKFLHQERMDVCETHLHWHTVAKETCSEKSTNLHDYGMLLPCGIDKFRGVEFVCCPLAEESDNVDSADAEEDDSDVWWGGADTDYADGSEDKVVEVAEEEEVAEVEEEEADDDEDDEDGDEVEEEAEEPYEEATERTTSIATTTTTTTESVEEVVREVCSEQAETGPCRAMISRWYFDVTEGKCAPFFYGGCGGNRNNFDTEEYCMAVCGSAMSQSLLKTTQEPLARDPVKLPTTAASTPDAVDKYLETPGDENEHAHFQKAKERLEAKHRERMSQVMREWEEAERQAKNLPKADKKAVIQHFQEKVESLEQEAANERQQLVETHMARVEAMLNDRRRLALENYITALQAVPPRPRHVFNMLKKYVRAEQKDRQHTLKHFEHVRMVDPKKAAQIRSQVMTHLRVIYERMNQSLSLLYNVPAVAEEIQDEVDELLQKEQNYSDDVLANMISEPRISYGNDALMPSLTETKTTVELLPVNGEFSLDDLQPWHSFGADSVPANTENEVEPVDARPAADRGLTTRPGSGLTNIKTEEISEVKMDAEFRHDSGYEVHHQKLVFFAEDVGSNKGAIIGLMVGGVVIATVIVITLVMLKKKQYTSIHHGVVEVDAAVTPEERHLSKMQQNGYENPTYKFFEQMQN
# runDescription: Inhibition of Amyloid beta (1 to 40) (unknown origin) assessed as self-mediated fibril formation at 50 uM incubated for 48 hrs by transmission electron microscopy
Active and inactive are the calls of the source. The calls are words filed in the database; no cut-off is given here.
Choose the fitting class; nothing outside active, inactive is accepted.

Solved cases below.
>  <compound>
CCN(C)C(=O)Oc1cccc([C@H](C)N(C)C)c1

>  <discreteLabel>
inactive

$$$$
>  <compound>
COc1ccc(CN2CCCCC2)cc1OC(=O)N(C)C

>  <discreteLabel>
active

$$$$
>  <compound>
COc1cc(C(C)N2CCCCC2)ccc1OC(=O)N(C)C (stereo not given)

>  <discreteLabel>
active

$$$$
>  <compound>
COc1cc(CN2CCCCC2)ccc1OC(=O)N(C)C

>  <discreteLabel>
active

$$$$

Now look at this entry.
Enquiry: What call does the record list for COc1cc(/C=C/C(=O)CC(=O)/C=C/c2ccc(O)c(OC)c2)ccc1O ?
Return: active
